# test details: NCI Yeast Anticancer Drug Screen. Data for the mgt1 strain (AID 153)
# condition details: S. cerevisiae mgt1 mutant growth inhibition; at 33.0 µM; hits give high values
Compounds without any hit were thinned out: in the full panel of roughly 79,000, 15% have a hit.
measured quantity: growth inhibition (%)
I only need the number, in %, no unit after it.

**Q:** Item under review: COc1cc([C@@H]2c3cc4c(cc3[C@@H](NC(=O)NO)[C@H]3COC(=O)[C@H]23)OCO4)cc(OC)c1O . Reported growth inhibition?
**A:** 14

**Q:** Param item: OC(c1ccccc1)(c1ccccc1)c1nccc2ccccc12
**A:** 15

**Q:** Param item: O=C1c2ccccc2C(=O)c2c(O)c(NCCNCCO)cc(O)c21
**A:** 91

**Q:** Param item: CCN(CC)CC(=O)c1ccc2cc(Cl)c3ccccc3c2c1
**A:** 99

**Q:** Param item: O=[N+]([O-])/C=C/c1cc2ccc3ccccc3c2[nH]1
**A:** 95

**Q:** Param item: ClCCCOc1c(Cl)cc(Cl)cc1Cl
**A:** -1

###

# test details: NCI Yeast Anticancer Drug Screen. Data for the mec2-1 strain (AID 157)
# condition details: S. cerevisiae mec2-1 strain, at 33.0 µM
Compounds without any hit were thinned out: in the full panel of roughly 79,000, 15% have a hit. Calls of active or inactive are those of the source. No stated cut-off is given here; in the data, active means growth inhibition above about 70%; inactive means the rest.
In this exercise, the only acceptable responses are active, inactive

Examples from the recorded data:
[[record]]
compound = "CCCN=Cc1cc(Cc2ccc(O)c(C=NCCC)c2)ccc1O"
group = "active"

[[record]]
compound = "CC(=O)O[C@H]1CC[C@@]2(C)C(=CC[C@@H]3C2CC[C@]2(C)C(=O)NC(=O)CC32)C1 (some centres undefined)"
group = "inactive"

[[record]]
compound = "CCCNCC(=O)O[C@]1(CC)C(=O)OCc2c1cc1n(c2=O)Cc2cc3ccccc3nc2-1"
group = "active"

[[record]]
compound = "Cc1cccc2c1C1c3c(C)cccc3C(CC(=O)O)CC1CC2 (centres undefined)"
group = "active"

[[record]]
compound = "O=c1c2ccccc2nc(-c2ccc(Cl)cc2)n1O"
group = "active"


**Q:** Check the results log: what was the call for NC(N)=NC(N)=Nc1ccccc1 (tested in a mixture with another compound) ?
**A:** inactive

**Q:** Param item: CCOC(=O)Nc1ccc(C)c(NC(=O)OCC)c1
**A:** inactive

###

# test details: NCI Yeast Anticancer Drug Screen. Data for the sgs1 strain (AID 173);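 further: 0% = growth of vehicle-only control cultures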
# condition details: S. cerevisiae sgs1 mutant, at 1.2 µM, hits give high values
Compounds without any hit were thinned out: in the full panel of roughly 79,000, 15% have a hit.
Kind request: treat -10% as inclusive, so growth inhibition at -10% or higher is T, anything lower is F.

Examples from the recorded data:
[[record]]
compound = "C=CCNC1=C2C[C@@H](C)C[C@H](OC)[C@H](O)[C@@H](C)/C=C(\\C)[C@H](OC(N)=O)[C@@H](OC)/C=C\\C=C(/C)C(=O)NC(=CC1=O)C2=O"
group = "F"

[[record]]
compound = "CCCCCCCN1C(=O)c2ccccc2C1=O"
group = "T"

[[record]]
compound = "CO[C@@]1([C@@H](Cl)c2ccccc2)C(=O)N(C)/C(=C\\c2ccccc2)C(=O)N1C"
group = "T"

[[record]]
compound = "Nc1cc2ccccc2cc1N"
group = "T"

[[record]]
compound = "Cc1ccnc2c(O)cccc12"
group = "F"


**Q:** Can COc1ccc2cc(C(C)C(=O)N3CCOC3=O)ccc2c1 (stereo not drawn) be said to have growth inhibition at or above -10%?
**A:** T

**Q:** Param item: O=C(/N=N/C(=O)Oc1ccccc1)Oc1ccccc1
**A:** F

**Q:** Param item: O=Cc1ccccc1C=O
**A:** F

**Q:** Param item: COC(=O)c1ccccc1N=NNc1cccc(SC)c1
**A:** T

**Q:** Param item: COc1cc([N+](=O)[O-])c2ncccc2c1Br
**A:** T

**Q:** Param item: CN1C(=O)C(CC(=O)O)NC1=S (stereo not drawn)
**A:** T

**Q:** Param item: O=C(NOC(=O)c1ccc([N+](=O)[O-])cc1)c1ccc(Cl)cc1
**A:** F

**Q:** Param item: O=C(C(Cl)=C(N1CCCCC1)N1CCCCC1)C(Cl)Cl
**A:** F

###

Reported growth inhibition values for the following compounds.
# test details: NCI Yeast Anticancer Drug Screen. Data for the sgs1 mgt1 strain (AID 161);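 further: 0% = growth of cultures given vehicle only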
# condition details: S. cerevisiae sgs1 mgt1 strain, at 50.0 µM, hits give high values
This is part of a sample that, as a whole, favours compounds with a hit. Of some 79,000 tested, about 15% had one in any assay.
I only need the number, in %, no unit after it.

[[record]]
compound = "CCCCOc1ccc2nc(C)cc(N=[N+]=[N-])c2c1"
result_value = 91.2


**Q:** Item under review: O=C(/C=C/c1ccsc1)c1cccs1 . Reported growth inhibition?
**A:** 66.6

**Q:** Param item: O=C(Nn1c(-c2ccccc2)nc2ccccc2c1=O)c1ccc(CS)cc1
**A:** 60.2

###

Reported growth inhibition values for the following compounds.
# test details: NCI Yeast Anticancer Drug Screen. Data for the sgs1 strain (AID 173);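 further: 0% = growth of vehicle-only control cultures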
# condition details: S. cerevisiae sgs1 mutant, at 33.0 µM, hits give high values
About 79,000 compounds went through this panel and 15% of them were active in at least one assay; those are over-represented in the sample as a whole.
I only need the number, in %, no unit after it.

In the examples that follow, each entry is paired with its recorded growth inhibition.
[[record]]
smiles_structure = "CCN(CC)C(=S)SC(=S)N(CC)CC"
measured_quantity = "growth inhibition"
unit_symbol = "%"
result_value = 90

[[record]]
smiles_structure = "NC(=S)N1N=C2c3ccccc3CC[C@@H]2[C@@H]1c1ccccc1"
measured_quantity = "growth inhibition"
unit_symbol = "%"
result_value = 68

[[record]]
smiles_structure = "O=C1/C(=C/c2ccc(Cl)c(Cl)c2)CNC/C1=C\\c1ccc(Cl)c(Cl)c1"
measured_quantity = "growth inhibition"
unit_symbol = "%"
result_value = 78

[[record]]
smiles_structure = "CCOc1ccc2nc3ccccc3c(N)c2c1"
measured_quantity = "growth inhibition"
unit_symbol = "%"
result_value = 88


**Q:** Item under review: c1c[nH]c(CN2CCN(Cc3ncc[nH]3)CC2)n1 . Reported growth inhibition?
**A:** 98

**Q:** Param item: O=c1c2ccccc2nc(-c2ccc(Cl)cc2)n1O
**A:** 96

###

# test details: NCI Yeast Anticancer Drug Screen. Data for the sgs1 strain (AID 173);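 further: 0% = growth of vehicle-only control cultures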
# condition details: S. cerevisiae sgs1 mutant, at 1.2 µM, hits give high values
Compounds without any hit were thinned out: in the full panel of roughly 79,000, 15% have a hit.
Reported growth inhibition values for the following molecules.
I only need the number, in %, no unit after it.

In the examples that follow, each entry is paired with its recorded growth inhibition.
[[record]]
molecule = "O=C(NNc1ccccc1)C(CCCCNS(=O)(=O)Cc1ccccc1)NS(=O)(=O)Cc1ccccc1 (stereo not given)"
result_value = 2

[[record]]
molecule = "CC1=CC(=O)C=CC1=Nc1cc(Cl)c(O)c(Cl)c1"
result_value = -50

[[record]]
molecule = "CN(C)CCNC(=Cc1ccc2ccccc2[n+]1C)NCCN(C)C"
result_value = 0

[[record]]
molecule = "C[C@H](CCC1=NC(C)(C)CO1)C1CCC2[C@@H]3C(O)C[C@@H]4CC(O)CC[C@]4(C)C3CC[C@@]21C (stereo not given in full)"
result_value = -3

[[record]]
molecule = "CC(C)S(=O)(=O)/C=C\\S(=O)(=O)C(C)C"
result_value = -5


**Q:** Item under review: CCCCCCC=C(C(=O)OCC)C(=O)OCC . Reported growth inhibition?
**A:** -1

**Q:** Param item: O=C1C(CCSc2ccccc2)C(=O)N(c2ccccc2)C1c1ccccc1 (stereo not given)
**A:** 7

**Q:** Param item: COc1ccc2c3c1OC(C)C31CC(=O)CCC1CC2 (stereo not given)
**A:** -1

**Q:** Param item: S=C1C(=Nc2ccccc2)N(c2ccccc2)/C(=N\c2ccccn2)N1c1ccccc1
**A:** -2

**Q:** Param item: CCC[CH2][Ge]([CH2]CCC)([CH2]CCC)[O]C(=O)C(O)c1ccccc1 (stereo not given)
**A:** -1

###

Reported growth inhibition values for the following compounds.
# test details: NCI Yeast Anticancer Drug Screen. Data for the bub3 strain (AID 167)
# condition details: S. cerevisiae bub3 mutant strain, at 1.2 µM, hits give high values
This is part of a sample that, as a whole, favours compounds with a hit. Of some 79,000 tested, about 15% had one in any assay.
I only need the number, in %, no unit after it.

In the examples that follow, each entry is paired with its recorded growth inhibition.
[[record]]
compound = "O=C(Cc1ccccc1)NNc1nc(NNC(=O)c2ccncc2)nc(Nc2ccc([N+](=O)[O-])cc2)n1"
measured_quantity = "growth inhibition"
result_value = -2

[[record]]
compound = "C[n+]1c(/C=C/c2ccc(/C=N/NC(=O)c3ccc(C(=O)N/N=C/c4ccc(/C=C/c5cn6ccccc6[n+]5C)cc4)cc3)cc2)cn2ccccc21"
measured_quantity = "growth inhibition"
result_value = 41

[[record]]
compound = "C[C@H](CCC1=NC(C)(C)CO1)C1CCC2[C@@H]3C(O)C[C@@H]4CC(O)CC[C@]4(C)C3CC[C@@]21C (stereo not given in full)"
measured_quantity = "growth inhibition"
result_value = -3


**Q:** Item under review: O=C1CCC(Cc2ccccc2)CN1 (stereo not given) . Reported growth inhibition?
**A:** -4

**Q:** Param item: Cc1cc(Cl)ccc1NC(=O)/C(Cl)=C(/Cl)C(=O)O
**A:** 2

**Q:** Param item: CCO/C=C1\SC(=S)N(c2ccc(OCC)cc2)C1=O
**A:** -7

**Q:** Param item: CCN(CC)CCC(=O)Nc1ccc2sc3ccccc3c(=O)c2n1
**A:** -3

**Q:** Param item: O=C(Cc1ccccc1)NN1C(=O)C(Cl)C1c1cc(Br)cc(Br)c1O (stereo not given)
**A:** -8

**Q:** Param item: BrC1C2CCC3OC3C12 (stereo not given)
**A:** -4

**Q:** Param item: CCOP(=O)(OCC)/C(C#N)=C\c1cccc2ccccc12
**A:** -29
